pIC50: −log10 of the molar value.
Please find below pIC50 measurements for Tyrosine-protein kinase JAK2 (Homo sapiens), combined from several publications.

Example entries and their recorded answers appear below.
Compound | Meas Value
Nc1cc2ccc1-c1ccnc(n1)Nc1ccc(OC3CCCOC3)c(c1)COc1ccc(cc1)NC2=O (stereo not shown) | 6.00 to 7.00
CN1CCC(N2C(=O)c3cc4nc(-c5c(NC[C@@H](O)COc6ccc(C#N)c(Cl)c6)ccnc5O)[nH]c4cc3C2=O)CC1 | 5.30 to 6.30
C[C@H](O)C(=O)N1CC[C@@H](Oc2ccc(-c3ncnc(Nc4ccc(N5CCN(C6COC6)CC5)cc4)n3)cc2C#N)C[C@H]1C | ≤ 6.00

Input line: Find pIC50 for "CNC(=O)c1n[nH]c2cc(-c3cc(F)c(O)cc3CC(F)(F)F)nc(NCc3nccnc3N(C)S(C)(=O)=O)c12" on Tyrosine-protein kinase JAK2 (Homo sapiens) and write it down.
Output line: 7.68

Input line: Find pIC50 for "Cc1ccc(OC[C@H](O)CNc2cc[nH]c(=O)c2-c2nc3c(C)c4c(cc3[nH]2)C(=O)N(C2CCN(C)CC2)C4=O)c(C)c1Cl" on Tyrosine-protein kinase JAK2 (Homo sapiens) and write it down.
Output line: 5.30 to 6.30

Input line: Find pIC50 for CC1CCNC(=O)c2ccc(c(N)c2)-c2ccnc(n2)Nc2ccc(OCC3CCCC3)c(c2)COC1 (stereo not shown) on Tyrosine-protein kinase JAK2 (Homo sapiens) and write it down.
Output line: 6.00 to 7.00

Input line: Find pIC50 for Cn1cc(-c2cn3nccc3c(-c3cnn(C4CCCC4CO)c3)n2)cn1 (stereo not shown) on Tyrosine-protein kinase JAK2 (Homo sapiens) and write it down.
Output line: 5.00 to 6.00
